Measured values drawn from PubChem BioAssay (EPA / NIEHS) for this set.

- Read-out: Heat shock 70 kDa protein 1 (HSPA1A), gene 3303
- METHOD NOTES: LTEA_HepaRG_HSPA1A: Life Technologies and Expression Analysis (LTEA) Assay for Heat shock 70 kDa protein 1 (HSPA1A) using HepaRG (AID 2283502)
- COND: mRNA level, 48 h; actives raise or lower the signal
- Method: LTEA_HepaRG is a cell based, multiplexed-readout assay that uses HepaRG, a human liver cell line, with measurements taken at 48 hours after chemical dosing on a 96-well plate.LTEA_HepaRG_HSPA1A is one of 102 assay component(s) measured in the LTEA HepaRG cell culture assay. It is a marker of Oxidative Stress.Data from the assay component LTEA_HepaRG_HSPA1A was analyzed into 1 endpoint. […]
Activity calls are given as the source filed them. How the source made its calls: active means hit-call score of the fitted dose curve at least 0.9, where 1 is the maximum; inactive means score below 0.9.
Use one of these outcomes when replying: 1 (yes) for active, 0 (no) for inactive

// known answers, use as guide
COMPOUND	CATEGORY
COc1c(Cl)ccc(Cl)c1C(=O)O	0 (no)
CC(=O)S[C@@H]1CC2=CC(=O)CC[C@]2(C)[C@H]2CC[C@@]3(C)[C@@H](CC[C@@]34CCC(=O)O4)[C@H]12	0 (no)
N#CSCSc1nc2ccccc2s1	0 (no)
CC1(C)C(C=C(Cl)Cl)C1C(=O)OCc1cccc(Oc2ccccc2)c1 (centres undefined)	0 (no)
CSC(=O)c1cccc2nnsc12	0 (no)

IN: Per the records of this test, what outcome belongs to `COC(=O)c1ccc(I)cc1S(=O)(=O)NC(=O)Nc1nc(C)nc(OC)n1` ?
OUT: 0 (no)

----------
- Read-out: Collagen III, COL3A1 (gene 1281)
- METHOD NOTES: BSK_hDFCGF_CollagenIII: BioMAP Diversity Plus: hDFCGF Assay for Collagen III Biomarker Activity (AID 2283056)
- COND: primary human foreskin fibroblasts; actives raise or lower the signal
- Procedure: BSK_hDFCGF is a cell-based, multiplexed-readout assay that uses foreskin fibroblast, a human skin primary cell, with measurements taken at 24 hours after chemical dosing in a 96-well plate.BSK_hDFCGF_CollagenIII is an assay component measured in the BSK_hDFCGF assay. It measures Collagen antibody related to regulation of gene expression using ELISA technology.Data from the assay component BSK_hDFCGF_CollagenIII was analyzed into 1 assay endpoint. […]
Calls of active or inactive are those of the source. How the source made its calls: active means hit-call score of the fitted dose curve at least 0.9, where 1 is the maximum; inactive means score below 0.9.
ATTRIBUTE MEASURED: AC50

Worked set:
COMPOUND	OBSERVED VALUE
CCCN(CCC)C(=O)SCC	inactive
C[C@]12CC[C@@H]3c4ccc(O)cc4C[C@@H](CCCCCCCCCS(=O)CCCC(F)(F)C(F)(F)F)[C@H]3[C@@H]1CC[C@@H]2O (stereo not given in full)	inactive
CCCCC(CC)CN1C(=O)C2C3C=CC(C3)C2C1=O (stereo not given)	30 µM (active)
CCCN(CCC)c1c([N+](=O)[O-])cc(C(F)(F)F)c(N)c1[N+](=O)[O-]	31.4 µM (active)

Please turn your attention to the following entry.
IN: What measured AC50 goes with `CN(C)C(=O)Nc1ccc(Cl)c(Cl)c1` ?
OUT: inactive

----------
- Read-out: Urokinase-type plasminogen activator receptor (uPAR), PLAUR (gene 5329)
- METHOD NOTES: BSK_4H_uPAR: BioMAP Diversity Plus: 4H Assay for Urokinase-type plasminogen activator receptor (uPAR) Biomarker Activity (AID 2283030)
- COND: primary human endothelial cells (HUVEC); actives raise or lower the signal
Activity calls are given as the source filed them. Rule for the calls: active = hit-call score of the fitted dose curve at least 0.9, where 1 is the maximum; inactive = score below 0.9.
Use one of these outcomes when replying: 1 for active, 0 for inactive

COMPOUND	CATEGORY
COC(=O)c1cccc(C)c1S(=O)(=O)NC(=O)Nc1nc(OCC(F)(F)F)nc(N(C)C)n1	0

IN: Per the records of this test, what outcome belongs to CCOC(=O)C(C)Oc1ccc(Oc2nc3ccc(Cl)cc3o2)cc1 (stereo not drawn) ?
OUT: 0

IN: Per the records of this test, what outcome belongs to C[C@]12CC[C@@H]3c4ccc(O)cc4C[C@@H](CCCCCCCCCS(=O)CCCC(F)(F)C(F)(F)F)[C@H]3[C@@H]1CC[C@@H]2O (stereo partly drawn) ?
OUT: 1
